# Test name: Acute toxicity
# Particulars: mouse, in vivo, ip; intraperitoneal, once, male mice, observed for 7 days
Reported property: LD50 at 168 h

For orientation, consider the following solved cases.
O=C1C(=O)N(Cc2ccc(Nc3ccncn3)cc2)CCN1Cc1ccccc1 [Compound 20] = > 500 mg/kg
Cc1cc(Nc2ccc(CN3CCN(Cc4ccccc4)C(=O)C3=O)cc2)ncc1N [Compound 43] = > 200 mg/kg
Cc1nc(Nc2ccc(CN3CCN(Cc4ccccc4)C(=O)C3=O)cc2)ccc1N [Compound 42] = > 200 mg/kg
O=C1C(=O)N(Cc2ccc(Nc3ccccn3)cc2)CCN1Cc1ccccc1 [Compound 2] = > 200 mg/kg
Cc1cc(Nc2ccc(CN3CCN(Cc4ccccc4)C(=O)C3=O)cc2)nc(C)c1N [Compound 44] = > 200 mg/kg

Provide each entry's LD50 at 168 h from the list below.
1. CCCCCCN1CCN(Cc2ccc(Nc3ccncn3)cc2)C(=O)C1=O [Compound 19]
2. O=C1C(=O)N(Cc2ccc(Nc3ncccn3)cc2)CCN1CCCc1ccccc1 [Compound 15]
3. O=C1C(=O)N(Cc2ccc(Nc3ncccn3)cc2)CCN1CCc1ccccc1 [Compound 14]
4. O=C1C(=O)N(c2ccccc2)CCN1Cc1ccc(Nc2ncccn2)cc1 [Compound 12]

> 500 mg/kg
> 500 mg/kg
> 500 mg/kg
> 500 mg/kg

---

# Test name: Acute toxicity
# Particulars: mouse, in vivo, ip
Reported property: LD50 at 168 h

For orientation, consider the following solved cases.
Nc1ccc(Nc2ccc(CN3CCN(Cc4ccccc4)C(=O)C3=O)cc2)nc1 [Compound 4] = > 300 mg/kg
CCCCCCN1CCN(Cc2ccc(Nc3ncccn3)cc2)C(=O)C1=O [Compound 7] = > 1000 mg/kg
CCCCCCN1CCN(Cc2ccc(Nc3ccccn3)cc2)C(=O)C1=O [Compound 1] = > 500 mg/kg
O=C1C(=O)N(Cc2ccc(Nc3ncccn3)cc2)CCN1Cc1ccccc1 [Compound 13] = > 1000 mg/kg

We now examine a further molecule.
Consider Nc1ccc(Nc2ccc(CN3CCN(Cc4ccccc4)C(=O)C3=O)cc2)nc1Cl [Compound 41] . Its measured LD50 at 168 h is > 200 mg/kg

Reference source: patent US4477664A
